# pIC50 per record follows
- assay system: VEGFR2 (Homo sapiens, UniProt P35968)
- Construct: host or cells: HEK293 (VEGFR2/NFAT Reporter recombinant cell line)
- Sequence (P35968 20-1356): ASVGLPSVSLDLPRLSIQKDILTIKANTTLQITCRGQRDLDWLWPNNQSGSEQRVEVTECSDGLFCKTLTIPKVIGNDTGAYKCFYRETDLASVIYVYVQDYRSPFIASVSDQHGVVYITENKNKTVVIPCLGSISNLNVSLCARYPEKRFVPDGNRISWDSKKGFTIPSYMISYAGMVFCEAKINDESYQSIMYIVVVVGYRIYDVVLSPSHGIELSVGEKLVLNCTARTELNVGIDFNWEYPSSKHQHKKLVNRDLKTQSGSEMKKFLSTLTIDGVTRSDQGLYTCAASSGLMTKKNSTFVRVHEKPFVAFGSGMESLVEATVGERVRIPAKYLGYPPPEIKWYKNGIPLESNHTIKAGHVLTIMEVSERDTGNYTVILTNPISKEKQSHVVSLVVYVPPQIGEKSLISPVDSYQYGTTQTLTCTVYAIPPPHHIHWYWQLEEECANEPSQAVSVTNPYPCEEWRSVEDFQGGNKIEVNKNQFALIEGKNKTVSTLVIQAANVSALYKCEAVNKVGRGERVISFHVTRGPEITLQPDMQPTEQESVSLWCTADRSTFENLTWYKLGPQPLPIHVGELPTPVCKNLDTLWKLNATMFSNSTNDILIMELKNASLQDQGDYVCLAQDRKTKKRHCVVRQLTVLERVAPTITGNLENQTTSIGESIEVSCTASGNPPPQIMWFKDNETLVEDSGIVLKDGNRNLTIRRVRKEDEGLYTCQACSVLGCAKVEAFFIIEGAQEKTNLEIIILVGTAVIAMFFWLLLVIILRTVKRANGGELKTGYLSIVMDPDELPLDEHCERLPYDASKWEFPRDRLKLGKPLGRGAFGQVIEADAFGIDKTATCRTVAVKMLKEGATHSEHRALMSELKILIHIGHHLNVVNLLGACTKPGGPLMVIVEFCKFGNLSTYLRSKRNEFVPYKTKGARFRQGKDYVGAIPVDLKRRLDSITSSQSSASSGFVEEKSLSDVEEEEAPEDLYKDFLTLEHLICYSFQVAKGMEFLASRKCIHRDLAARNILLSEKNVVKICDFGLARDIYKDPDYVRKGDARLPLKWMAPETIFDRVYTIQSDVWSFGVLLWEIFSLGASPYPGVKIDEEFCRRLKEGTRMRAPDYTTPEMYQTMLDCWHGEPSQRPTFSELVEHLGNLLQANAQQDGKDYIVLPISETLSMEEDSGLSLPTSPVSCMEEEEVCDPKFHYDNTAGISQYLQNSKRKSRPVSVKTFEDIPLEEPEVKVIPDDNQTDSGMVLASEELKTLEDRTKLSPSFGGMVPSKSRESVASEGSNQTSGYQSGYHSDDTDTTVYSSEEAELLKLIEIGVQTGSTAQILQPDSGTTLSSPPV
- experiment notes: VEGFR2/NFAT Reporter HEK293 luciferase assay of VEGF signaling
- Format: cell-based
- test parameters: VEGFR2-HEK cells, kept in the dark, 20 ng/ml VEGF165; read-out: IC50 Dark
Formally, pIC50 is defined as -log10 of the concentration c, with c in mol/L.

These recorded examples may help you get a feel for the data.
[
  {
    "compound": "CCN(CC)CCNC(=O)c1c(C)[nH]c(/C=C2\\C(=O)Nc3cc(F)c(N=[N+]=[N-])cc32)c1C",
    "assay system": "VEGFR2 (Homo sapiens, UniProt P35968)",
    "numeric readout": 7.16
  },
  {
    "compound": "Cc1[nH]c(/C=C2\\C(=O)Nc3cc(N=[N+]=[N-])ccc32)c(C)c1C(=O)N[C@H]1CCN(C(=O)N(C)C)C1",
    "assay system": "VEGFR2 (Homo sapiens, UniProt P35968)",
    "numeric readout": 7.27
  },
  {
    "compound": "CCN(CC)CCNC(=O)c1c(C)[nH]c(/C=C2\\C(=O)Nc3ccc(N=[N+]=[N-])cc32)c1C",
    "assay system": "VEGFR2 (Homo sapiens, UniProt P35968)",
    "numeric readout": 6.58
  },
  {
    "compound": "Cc1[nH]c(/C=C2\\C(=O)Nc3cc(Cl)c(N=[N+]=[N-])cc32)c(C)c1C(=O)N[C@H]1CCN(C(=O)N(C)C)C1",
    "assay system": "VEGFR2 (Homo sapiens, UniProt P35968)",
    "numeric readout": 7.24
  },
  {
    "compound": "CCN(CC)CCNC(=O)c1c(C)[nH]c(/C=C2\\C(=O)Nc3cc(Cl)c(N=[N+]=[N-])cc32)c1C",
    "assay system": "VEGFR2 (Homo sapiens, UniProt P35968)",
    "numeric readout": 7.39
  },
  {
    "compound": "CCN(CC)CCNC(=O)c1c(C)[nH]c(/C=C2\\C(=O)Nc3cc(N=[N+]=[N-])c(F)cc32)c1C",
    "assay system": "VEGFR2 (Homo sapiens, UniProt P35968)",
    "numeric readout": 7.27
  }
]

Then this compound:
Lookup: What value of pIC50 has been reported for the following compound? CCN(CC)CCNC(=O)c1c(C)[nH]c(/C=C2\C(=O)Nc3cc(N=[N+]=[N-])ccc32)c1C
Found: 7.03

---

- assay system: VEGFR2 (Homo sapiens, UniProt P35968)
- Construct: host or cells: HEK293 (VEGFR2/NFAT Reporter recombinant cell line)
- experiment notes: VEGFR2/NFAT Reporter HEK293 luciferase assay of VEGF signaling
- Format: cell-based
- test parameters: ratio of IC50 dark to IC50 light, VEGFR2-HEK cells
Listed here: items and their measured Dark/Light.
// no unit string in output, number only

Reference set, count: 2
[
  {
    "compound": "CCN(CC)CCNC(=O)c1c(C)[nH]c(/C=C2\\C(=O)Nc3cc(F)c(N=[N+]=[N-])cc32)c1C",
    "Dark/Light": 7.79
  },
  {
    "compound": "CCN(CC)CCNC(=O)c1c(C)[nH]c(/C=C2\\C(=O)Nc3cc(Cl)c(N=[N+]=[N-])cc32)c1C",
    "Dark/Light": 18.12
  }
]

Shift focus to the following entry.
Lookup: Reported Dark/Light for CCN(CC)CCNC(=O)c1c(C)[nH]c(/C=C2\C(=O)Nc3cc(N=[N+]=[N-])ccc32)c1C : what is it?
Found: 10.074
